Would you mind telling me the reported growth of each entry?
System: M14 melanoma
Experiment: NCI-60 one-dose screen, 48 h (100 = growth as untreated, 0 = no growth, -100 = all killed)
Conditions: 10 µM unless noted
Method: Growth inhibition of the M14 human tumor cell line is measured as a screen for anti-cancer activity. Cells are grown in 96 well plates and exposed to the test compound for 48 hours. Compounds are tested at a single concentration, which is 10^-5 M for most compounds. The reported endpoint is percent growth (GI% or GIPRCNT), where numbers from 0 - 100% represent growth inhibition, and numbers from -100% - 0 represent cell death. For example, a value of 40 represents 60% growth inhibition. […]
About 83,000 compounds went through this panel and 20% of them were active in at least one assay; those are over-represented in the sample as a whole. Calls of active or inactive are those of the source. The calls were made as follows: active = growth percent below 10; inactive = the rest.

Example cases with answers are listed next.
molecule	result
N#Cc1c(-c2ccco2)nc2c(c(-c3ccccc3)nn2-c2ccccc2)c1-c1ccc(O)cc1	65.6% (inactive)
O=[N+]([O-])c1cc(S(=O)(=O)c2ccc(F)c([N+](=O)[O-])c2)ccc1F	81.7% (inactive)
CC(C)(C)c1nc(-c2ccc(O)c(O)c2)cs1	43.2% (inactive)

I have 7 molecules here; please give me growth for each one.
1. O=C1CN(c2ccccc2)C(=O)C1C(=O)Nc1ccc(Cl)c(Cl)c1 (stereo not given)
2. Cc1cc2nc3c4cc(O)ccc4n(CCN(C)C)c3nc2cc1C
3. CN(C)c1ccc(N)c2ccccc12
4. N=C(N)N=Nc1ccc(O)cc1
5. CN(CSc1ccc(Cl)cc1)c1ccc(CSc2ccc(Cl)cc2)cc1
6. COc1ccc(CCN2C(=O)C(C)(C)SC2=S)cc1OC
7. Oc1ccc(Nc2ccccc2)cc1

1. 28.8% [100 µM] (inactive)
2. -33.7% (active)
3. -94.9% (active)
4. 81.6% [100 µM] (inactive)
5. 49.7% (inactive)
6. 98.4% (inactive)
7. 104% (inactive)

----------
Test system: U251 CNS
Assay: NCI-60 one-dose screen, 48 h (100 = growth as untreated, 0 = no growth, -100 = all killed)
Details: 10 µM unless noted
This is part of a sample that, as a whole, favours compounds with a hit. Of some 83,000 tested, about 20% had one in any assay.
Record label 1 whenever growth is at 70% or higher; record label 0 when lower.

> print(dat)
                          molecule  group.label
1  COC(=O)CNc1nc(N(C)O)nc(N(C)O)n1      label 0

Now for a further molecule.
Reported growth reaches at least 70% for `COc1ccc(C2=NN(c3nc(-c4ccc(OC)cc4)c(C#N)c(=O)n3C)C(=O)CC2)cc1` ?
label 1

----------
Test system: SF-539 CNS
Experiment: NCI-60 one-dose screen, 48 h
Settings: 10 µM unless noted
Compounds without any hit were thinned out: in the full panel of roughly 83,000, 20% have a hit. Active and inactive are the calls of the source. The calls were made as follows: active = growth percent below 10; inactive = the rest.
Write down the outcome that applies. Available outcomes: active, inactive

Observe how each entry below is paired with its result.
> print(dat)
                                   compound  group.label
1  CC(C)(C)CC(C)(C)c1ccc(OCCOCC[N+](C)(C)CC(=O)[O-])cc1     inactive
2  N=C(N)c1ccc(-c2ccc(-c3cc(F)cc(F)c3)o2)nc1     inactive
3  COc1cc2[nH]c(C(=O)c3cc(OC)c(OC)c(OC)c3)c(N)c2cc1C#CCO       active
4               Cc1ccnc2c(OCc3ccccc3)cccc12     inactive

Hi, sorry to bother you, what did the test record for CC(CNc1nc(Nc2ccc(Cl)c(Cl)c2)nc(C(Cl)(Cl)Cl)n1)N(C)C (stereo not given) ?
inactive

Hi, sorry to bother you, what did the test record for NC(=O)[C@@H]1CC2CCC1C2 (stereo not given in full) ?
inactive

Hi, sorry to bother you, what did the test record for `C=C(C)[C@@H]1CC[C@]2(C(=O)O)CC[C@]3(C)[C@H](CC[C@@H]4[C@@]5(C)C/C(=C/c6cccc(I)c6)C(=O)C(C)(C)[C@@H]5CC[C@]43C)[C@@H]12` ?
inactive

Hi, sorry to bother you, what did the test record for `COc1cc(/C=N/Nc2ncnc3c2c(C)nn3-c2ccc(F)cc2)ccc1O` ?
inactive

Hi, sorry to bother you, what did the test record for `O=C1C(=O)c2ccccc2C(O)=C1CCCc1ccc(C2CCCCC2)cc1` ?
inactive

Hi, sorry to bother you, what did the test record for `CCCCN1CCCCn2c1nc1c2c(=O)n(C)c(=O)n1C` ?
inactive
